Tested on: OVCAR-8 ovarian
Assay: NCI tumour cell line growth inhibition, 48 h
Each entry below carries its reported GI50.

compound: Cc1ccc(N=C/C=C(\Nc2ccc(C)cc2)c2ccc(Cl)cc2)cc1
GI50: 14.6 µM
//
compound: COc1cc(OC)c(C(=O)/C=C/c2cccc(C(F)(F)F)c2)c(OC)c1
GI50: 1.41 µM
//
compound: C/C(=N\Nc1ccc(Cl)cn1)c1ccc2ccccc2n1
GI50: 3.04 µM
//
compound: CC1(C)C(=O)/C(=C\c2cccnc2)C[C@]2(C)[C@H]3CC[C@@H]4[C@H]5[C@H](C(=O)/C=C/c6cccnc6)CC[C@]5(C(=O)O)CC[C@@]4(C)[C@]3(C)CC[C@@H]12
GI50: 3.5 µM
//
compound: COc1ccccc1CNCCCN1C(=O)c2ccc3c4c(ccc(c24)C1=O)C(=O)N(CCCNCCNCCCN)C3=O
GI50: 2.08 µM
//
compound: Nc1ccccc1C#C/C=C\C#Cc1ccccc1N
GI50: 28.1 µM
//
compound: CCCCC(CC)COC(=O)C[N+](C)(C)CCOC(c1ccccc1)c1ccccc1 (stereo unspecified)
GI50: 4.02 µM
//
compound: O=C(Nc1n[nH]c2cc(-c3ccccc3)ccc12)C1CC1
GI50: 14.5 µM
//
compound: CC12OC(C(=O)C13CC3)C1C(=O)c3ccc4c(ccc5ccccc54)c3C(=O)C12 (stereo unspecified)
GI50: 30.4 µM
//
compound: Cc1cc(C)c(NC(=O)c2sc3nc4c(cc3c2N)C(=O)CCC4)c(C)c1
GI50: 5.88 µM
//
compound: Cc1cc(C(=O)Nc2ccc3cc(CN4CCOCC4)ccc3n2)c(C)n1-c1ccccc1
GI50: 1.21 µM
